target: recombinant pro-PrP^23-253 (human, UniProt P04156 23-253); experiment: in vitro pull-down with mAb 8H4 and protein G beads, anti-GST immunoblot
observation-type: binding result

INSERT INTO assay_data (binder, assay_result) VALUES
  ('GST-tagged FLNa domain 19 (other, domain: domain 19) SEIGDASRVRVSGQGLHEGHTFEPAEFIIDTRDAGYGGLSLSIEGPSKVDINTEDLEDGTCRVTYCPTEPGNYIINIKFADQHVPGSPFS', 'no binding'),
  ('GST-tagged FLNa domain 21 (other, domain: domain 21) LGEGGAHKVRAGGPGLERAEAGVPAEFSIWTREAGAGGLAIAVEGPSKAEISFEDRKDGSCGVAYVVQEPGDYEVSVKFNEEHIPDSPFVVPV', 'binds'),
  ('GST-tagged FLNa domain 17 (other, domain: domain 17) DYVNCGHVTAYGPGLTHGVVNKPATFTVNTKDAGEGGLSLAIEGPSKAEISCTDNQDGTCSVSYLPVLPGDYSILVKYNEQHVPGSPFTA', 'binds'),
  ('GST-tagged FLNa domain 11 (other, domain: domain 11) EPAVDTSGVQCYGPGIEGQGVFREATTEFSVDARALTQTGGPHVKARVANPSGNLTETYVQDRGDGMYKVEYTPYEEGLHSVDVTYDGSPVPSSPFQVPV', 'no binding');
